experimental.system: Xanthine dehydrogenase/oxidase (Homo sapiens)
Sequence (P47989 whole entry): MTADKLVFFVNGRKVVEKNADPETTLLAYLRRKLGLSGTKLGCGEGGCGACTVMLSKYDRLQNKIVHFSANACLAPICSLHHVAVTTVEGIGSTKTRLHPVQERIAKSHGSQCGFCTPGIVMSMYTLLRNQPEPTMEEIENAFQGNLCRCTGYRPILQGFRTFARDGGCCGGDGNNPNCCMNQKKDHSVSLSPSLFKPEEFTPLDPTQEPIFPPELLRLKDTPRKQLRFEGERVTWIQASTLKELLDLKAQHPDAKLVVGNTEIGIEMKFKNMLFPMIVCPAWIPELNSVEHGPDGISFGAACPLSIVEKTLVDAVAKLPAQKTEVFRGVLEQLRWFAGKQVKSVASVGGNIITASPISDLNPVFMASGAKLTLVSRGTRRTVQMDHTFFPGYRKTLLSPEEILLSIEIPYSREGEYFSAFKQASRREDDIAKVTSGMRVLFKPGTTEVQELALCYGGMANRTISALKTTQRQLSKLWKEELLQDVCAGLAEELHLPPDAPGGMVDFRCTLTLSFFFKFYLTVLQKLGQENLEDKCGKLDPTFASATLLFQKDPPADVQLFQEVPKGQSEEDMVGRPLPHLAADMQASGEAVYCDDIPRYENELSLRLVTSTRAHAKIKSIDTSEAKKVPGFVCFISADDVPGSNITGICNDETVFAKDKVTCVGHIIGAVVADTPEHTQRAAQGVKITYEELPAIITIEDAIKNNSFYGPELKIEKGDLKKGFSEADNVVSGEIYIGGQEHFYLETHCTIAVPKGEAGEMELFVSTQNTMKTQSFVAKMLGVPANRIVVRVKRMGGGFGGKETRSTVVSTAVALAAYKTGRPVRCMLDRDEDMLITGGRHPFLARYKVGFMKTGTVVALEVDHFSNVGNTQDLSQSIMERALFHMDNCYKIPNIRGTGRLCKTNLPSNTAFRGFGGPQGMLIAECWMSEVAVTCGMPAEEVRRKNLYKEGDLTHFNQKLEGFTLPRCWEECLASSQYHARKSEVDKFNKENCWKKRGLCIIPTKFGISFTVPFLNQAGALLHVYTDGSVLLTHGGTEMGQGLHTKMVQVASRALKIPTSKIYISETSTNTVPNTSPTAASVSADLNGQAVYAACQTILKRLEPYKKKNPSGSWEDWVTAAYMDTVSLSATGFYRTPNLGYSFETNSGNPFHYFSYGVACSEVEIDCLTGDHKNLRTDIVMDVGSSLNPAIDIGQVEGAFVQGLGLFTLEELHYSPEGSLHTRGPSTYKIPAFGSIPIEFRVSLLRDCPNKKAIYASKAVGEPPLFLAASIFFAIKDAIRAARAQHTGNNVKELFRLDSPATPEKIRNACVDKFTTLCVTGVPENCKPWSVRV
property.measured: IC50 (µM)
Answers are plain numbers, in µM.

Entry O=c1cc(-c2ccc(O)c(O)c2)oc2cc(O)cc(O)c12 [LUTEOLIN] ; assay system Xanthine dehydrogenase/oxidase (Homo sapiens); IC50 recorded at 11.5

----------
experimental.system: Tyrosine-protein phosphatase non-receptor type 1 (Homo sapiens, UniProt P18031)
Sequence (P18031 whole entry): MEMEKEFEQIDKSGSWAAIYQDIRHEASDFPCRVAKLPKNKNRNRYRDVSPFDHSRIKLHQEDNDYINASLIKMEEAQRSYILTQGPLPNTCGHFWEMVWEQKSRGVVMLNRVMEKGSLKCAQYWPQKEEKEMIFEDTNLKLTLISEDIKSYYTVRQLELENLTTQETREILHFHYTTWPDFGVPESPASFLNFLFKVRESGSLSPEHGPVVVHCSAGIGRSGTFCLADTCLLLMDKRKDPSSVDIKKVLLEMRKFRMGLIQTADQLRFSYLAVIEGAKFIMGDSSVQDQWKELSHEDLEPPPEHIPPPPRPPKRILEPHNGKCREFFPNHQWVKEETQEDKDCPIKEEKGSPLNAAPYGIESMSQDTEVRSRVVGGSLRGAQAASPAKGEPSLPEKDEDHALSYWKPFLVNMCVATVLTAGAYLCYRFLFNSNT
assay.explanation: Inhibition of human recombinant PTP1B after 10 mins
property.measured: IC50 (µM)
Answers are plain numbers, in µM.

// recorded IC50 for O=C(O)/C=C/c1ccc(O)c(O)c1 [CAFFEIC ACID] : 3.06
